Where do these numbers come from? They come from the supplement of paper PMC10307832.

Tested on: NCI-H1993
Test: relative viability (nuclei count vs DMSO), 5 days (fraction); higher = more cells survive
Conditions: first compound 0.253 µM
EXPERIMENTAL_ENDPOINT: relative viability

MOLECULE | TARGET_OF_ASSAY | READOUT_NUMBER
Cc1cnc(-c2cnc(NCCNc3ccc(C#N)cn3)nc2-c2ccc(Cl)cc2Cl)[nH]1 + C[C@]1(O)C[C@@H](c2nc(-c3ccc4ccc(-c5ccccc5)nc4c3)c3c(N)nccn32)C1 [Linsitinib] (partner 1 µM) | NCI-H1993 | 0.763
O=c1[nH]c2ccccc2n1C1CCN(CCCC(c2ccc(F)cc2)c2ccc(F)cc2)CC1 [Pimozide] + CS(=O)(=O)CCNCc1ccc(-c2ccc3ncnc(Nc4ccc(OCc5cccc(F)c5)c(Cl)c4)c3c2)o1 [Lapatinib] (partner 2 µM) | NCI-H1993 | 0.714
O=c1[nH]c2ccccc2n1C1CCN(CCCC(c2ccc(F)cc2)c2ccc(F)cc2)CC1 [Pimozide] + C[C@]1(O)C[C@@H](c2nc(-c3ccc4ccc(-c5ccccc5)nc4c3)c3c(N)nccn32)C1 [Linsitinib] (partner 1 µM) | NCI-H1993 | 0.659
Cc1cnc(-c2cnc(NCCNc3ccc(C#N)cn3)nc2-c2ccc(Cl)cc2Cl)[nH]1 + CS(=O)(=O)N1CCN(Cc2cc3nc(-c4cccc5[nH]ncc45)nc(N4CCOCC4)c3s2)CC1 [Pictilisib] (partner 1 µM) | NCI-H1993 | 0.911
Cc1cnc(-c2cnc(NCCNc3ccc(C#N)cn3)nc2-c2ccc(Cl)cc2Cl)[nH]1 + Cc1cc(Nc2cc(N3CCN(C)CC3)nc(Sc3ccc(NC(=O)C4CC4)cc3)n2)n[nH]1 [Tozasertib] (partner 0.1 µM) | NCI-H1993 | 0.558
Cc1cnc(-c2cnc(NCCNc3ccc(C#N)cn3)nc2-c2ccc(Cl)cc2Cl)[nH]1 + C[C@@H](Oc1cc(-c2cnn(C3CCNCC3)c2)cnc1N)c1c(Cl)ccc(F)c1Cl [Crizotinib] (partner 1 µM) | NCI-H1993 | 0.861
Cc1cnc(-c2cnc(NCCNc3ccc(C#N)cn3)nc2-c2ccc(Cl)cc2Cl)[nH]1 + Cc1nc(Nc2ncc(C(=O)Nc3c(C)cccc3Cl)s2)cc(N2CCN(CCO)CC2)n1 [Dasatinib] (partner 0.075 µM) | NCI-H1993 | 0.568
Cc1cnc(-c2cnc(NCCNc3ccc(C#N)cn3)nc2-c2ccc(Cl)cc2Cl)[nH]1 + Nc1nc2[nH]cc(CCc3ccc(C(=O)N[C@@H](CCC(=O)O)C(=O)O)cc3)c2c(=O)[nH]1 [Pemetrexed] (partner 0.2 µM) | NCI-H1993 | 0.512
O=c1[nH]c2ccccc2n1C1CCN(CCCC(c2ccc(F)cc2)c2ccc(F)cc2)CC1 [Pimozide] + NC(=O)Nc1cc(-c2cccc(F)c2)sc1C(=O)N[C@H]1CCCNC1 [AZD7762] (partner 0.2 µM) | NCI-H1993 | 0.752
